Measured pIC50 values are reported for all entries that follow.
- Tested on: HT-29
- assayInfo: Cytotoxicity against human HT-29 cells after 48 hrs by MTT assay
- Assay type: functional, cell-based
- testParameters: HT-29, 48 h
Give only the number. pIC50 is defined as minus log10 of concentration in molar units.

Lookup: Specify reported pIC50 for the compound shown: COc1ccc(-c2nc(SC)sc2-c2ccc(F)cc2)c(OC)c1OC
Found: 4.10

Lookup: Specify reported pIC50 for the compound shown: COc1ccc(-c2nc(SC)sc2-c2ccccc2)c(OC)c1OC
Found: 4.11

Lookup: Specify reported pIC50 for the compound shown: COc1ccc(-c2nc(SCc3ccccc3)sc2-c2ccc(Cl)cc2)c(OC)c1OC
Found: 5.05

Lookup: Specify reported pIC50 for the compound shown: COc1ccc(-c2nc(SCc3ccccc3)sc2-c2ccccc2)c(OC)c1OC
Found: 4.34

Lookup: Specify reported pIC50 for the compound shown: COc1ccc(/C=C\c2cc(OC)c(OC)c(OC)c2)cc1O [COMBRETASTATIN A4]
Found: 5.80
